# System: influenza A virus (IAV) A/Aichi/2/68 (H3N2)
# TEST METHOD NOTES: microbe, parasite or virus in culture
# Assay type: cell-based, influenza A virus in MDCK cells
# REPORTED CONDITIONS: Influenza A virus, H3N2, MDCK, 48 h, read-out: CPE IC50
pIC50: −log10 of the molar value.
QUANTITY: pIC50

Please review the entries below; each comes with its answer.
{"COMPOUND": "CC(C)c1cnc2[nH]cc(C(=O)NCC(F)(F)F)c2n1", "QUANTITY": "pIC50", "VALUE OBSERVED": "< 4.30"}
{"COMPOUND": "CC(C)C[C@@H](NC(=O)c1c[nH]c2ncc(C3CC3)nc12)C(=O)NCCC(=O)Nc1ccccc1", "QUANTITY": "pIC50", "VALUE OBSERVED": "< 4.00"}

Answer with the recorded pIC50 for the compound listed here: "O=C(N[C@@H](C(=O)N1CCN(C2CCOCC2)CC1)C1CC1)c1c[nH]c2ncc(C3CC3)nc12"
< 4.00

Indicate its recorded pIC50; the compound in question is "CC(C)NC(=O)c1c[nH]c2ncc(-c3ccccc3C(F)(F)F)nc12"
< 4.00

Determine from records and report pIC50 for "O=C(N[C@@H](C(=O)NCCC(=O)N1CCCC1)C1CC1)c1c[nH]c2ncc(C3CC3)nc12"
< 4.00

For the compound "CC(C)C[C@@H](NC(=O)c1c[nH]c2ncc(C3CC3)nc12)C(=O)NCCC(=O)NCc1ccccc1" , give its reported pIC50.
< 4.00

Assign pIC50 to the following record: "N#Cc1cccc(CNC(=O)[C@H](NC(=O)c2c[nH]c3ncc(C4CC4)nc23)C2CC2)c1"
4.91

Give a short answer stating reported pIC50 for "CC(C)(NC(=O)c1c[nH]c2ncc(C3CC3)nc12)C(=O)N1CCCC1" .
< 4.00

Return pIC50 (reported value) for this compound: O=C(N[C@@H](C(=O)NC1CCCc2ccccc21)C1CC1)c1c[nH]c2ncc(C3CC3)nc12 (stereo partly drawn)
< 4.00

###

As shown below, each of these molecules has a reported CC50 value.
# TEST METHOD NOTES: in vitro
# REPORTED CONDITIONS: dog

Observe how each entry below is paired with its result.
{"SMILES REPRESENTATION": "O=C(N[C@@H](C(=O)NCc1ccc(Cl)cc1Cl)C1CC1)c1c[nH]c2ncc(C3CC3)nc12", "QUANTITY": "CC50", "VALUE OBSERVED": "> 12.5 µM"}
{"SMILES REPRESENTATION": "N#Cc1cccc(CNC(=O)[C@H](NC(=O)c2c[nH]c3ncc(C4CC4)nc23)C2CC2)c1", "QUANTITY": "CC50", "VALUE OBSERVED": "> 50 µM"}
{"SMILES REPRESENTATION": "O=C(NCCc1ccccc1)c1c[nH]c2ncc(C3CC3)nc12", "QUANTITY": "CC50", "VALUE OBSERVED": "> 100 µM"}

Then this molecule:
Give CC50 for "COC(=O)c1cccc(CNC(=O)[C@H](NC(=O)c2c[nH]c3ncc(C4CC4)nc23)C2CC2)c1"
63.9 µM

###

# Tested on: influenza A virus (IAV) A/Aichi/2/68 (H3N2)
# TEST METHOD NOTES: microbe, parasite or virus in culture
# Format: cell-based, influenza A virus in MDCK cells
# REPORTED CONDITIONS: Influenza A virus, H3N2, MDCK, 48 h, read-out: CPE IC50
QUANTITY: IC50 (µM)
Write the answer as a number in µM, unit excluded.

// known answers, use as guide
{"COMPOUND": "CC(C)c1cnc2[nH]cc(C(=O)NCC(C)(C)C)c2n1", "QUANTITY": "IC50", "VALUE OBSERVED": 52.2}
{"COMPOUND": "O=C(N[C@@H](C(=O)NCc1ccccc1)C1CC1)c1c[nH]c2ncc(C3CC3)nc12", "QUANTITY": "IC50", "VALUE OBSERVED": 18.2}
{"COMPOUND": "O=C(N[C@@H](C(=O)NCc1ccc(Cl)cc1)C1CC1)c1c[nH]c2ncc(C3CC3)nc12", "QUANTITY": "IC50", "VALUE OBSERVED": 2.99}
{"COMPOUND": "O=C(N[C@@H](C(=O)N1CCC2(CCN(Cc3ccccc3)C2=O)C1)C1CC1)c1c[nH]c2ncc(C3CC3)nc12 (stereo partly drawn)", "QUANTITY": "IC50", "VALUE OBSERVED": 27}
{"COMPOUND": "Cc1ccc(CNC(=O)c2c[nH]c3ncc(C(C)C)nc23)nn1", "QUANTITY": "IC50", "VALUE OBSERVED": 139}

Provide one value: measured IC50 of "O=C(N[C@@H](C(=O)NCc1ccncc1)C1CC1)c1c[nH]c2ncc(C3CC3)nc12"
40.4

Given the compound "O=C(N[C@@H](C(=O)NCc1ccccc1Cl)C1CC1)c1c[nH]c2ncc(C3CC3)nc12" , write its reported IC50.
8.8

Give IC50 for "O=C(N[C@@H](C(=O)NCc1ccc(OC(F)(F)F)cc1)C1CC1)c1c[nH]c2ncc(C3CC3)nc12"
5.4

Return IC50 (reported value) for this compound: "O=C(N[C@@H](C(=O)NCc1cccc(F)c1)C1CC1)c1c[nH]c2ncc(C3CC3)nc12"
9.2

Fill in IC50 for record COc1ccc(C(C#N)NC(=O)[C@H](NC(=O)c2c[nH]c3ncc(C4CC4)nc23)C2CC2)cc1 (stereo partly drawn)
4.9

Please report the measured IC50 for "O=C(NCCc1ccccc1)c1c[nH]c2ncc(C3CC3)nc12"
66.9

Indicate its recorded IC50; the compound in question is "CC(C)c1cnc2[nH]cc(C(=O)NC3(C#N)CC3)c2n1"
34.7

Name the recorded IC50 of the item "CCCNC(=O)c1c[nH]c2ncc(C(C)C)nc12" in your answer.
18.1

Output measured IC50 for this item: "COC(=O)c1cccc(CNC(=O)[C@H](NC(=O)c2c[nH]c3ncc(C4CC4)nc23)C2CC2)c1"
4.8

Please give measured IC50 of the following entry: "O=C(N[C@@H](C(=O)NCc1ccc(C(F)(F)F)cc1)C1CC1)c1c[nH]c2ncc(C3CC3)nc12"
4.6

###

# Tested on: influenza A virus (IAV) A/Aichi/2/68 (H3N2)
# TEST METHOD NOTES: microbe, parasite or virus in culture
# Assay type: cell-based, influenza A virus in MDCK cells
# REPORTED CONDITIONS: Influenza A virus, H3N2, MDCK, 48 h, read-out: CPE IC50
QUANTITY: IC50

Recorded IC50, per entry:
{"MOLECULE": "N#CC(NC(=O)[C@H](NC(=O)c1c[nH]c2ncc(C3CC3)nc12)C1CC1)c1ccc(C(F)(F)F)cc1 (stereo partly shown)", "IC50": "> 10 µM"}
{"MOLECULE": "O=C(N[C@@H](C(=O)NCc1cccc(Cl)c1)C1CC1)c1c[nH]c2ncc(C3CC3)nc12", "IC50": "7.3 µM"}
{"MOLECULE": "O=C(N[C@@H](C(=O)NCCc1ccccc1)C1CC1)c1c[nH]c2ncc(C3CC3)nc12", "IC50": "> 100 µM"}

Answer with the recorded IC50 of "O=C(N[C@@H](C(=O)NCc1cc(Cl)cc(Cl)c1)C1CC1)c1c[nH]c2ncc(C3CC3)nc12" only.
> 25 µM

Provide measured IC50 value, entry: "CS(=O)(=O)CCNC(=O)c1c[nH]c2ncc(-c3ccccc3Cl)nc12"
> 100 µM

Provide IC50 value for the following molecule: "O=C(N[C@@H](C(=O)NCc1ccc(F)c(F)c1)C1CC1)c1c[nH]c2ncc(C3CC3)nc12"
14.8 µM

Tell us which IC50 value is on record for "CCN(C)C(=O)c1c[nH]c2ncc(C(C)C)nc12"
> 100 µM

Look up IC50 of "CC(C)C[C@@H](NC(=O)c1c[nH]c2ncc(C3CC3)nc12)C(=O)NCCC(=O)NCc1ccccn1" and report it.
> 100 µM

# return recorded IC50 for input "O=C(N[C@@H](C(=O)NCCC(=O)N1CCOCC1)C1CC1)c1c[nH]c2ncc(C3CC3)nc12"
> 100 µM

Write down IC50 measured for item "CN1CCN(C(=O)CCNC(=O)[C@H](NC(=O)c2c[nH]c3ncc(C4CC4)nc23)C2CC2)CC1"
> 100 µM

###

# Tested on: influenza A virus (IAV) A/Aichi/2/68 (H3N2)
# TEST METHOD NOTES: microbe, parasite or virus in culture
# Type: cell-based, influenza A virus in MDCK cells
# REPORTED CONDITIONS: Influenza A virus, H3N2, MDCK, 48 h, read-out: CPE IC50
A collection of compounds and their measured IC50

Check out these entries, answers already filled in.
{"SMILES REPRESENTATION": "O=C(N[C@@H](C(=O)N1CCc2ccccc2C1)C1CC1)c1c[nH]c2ncc(C3CC3)nc12", "VALUE OBSERVED": "> 100 µM"}
{"SMILES REPRESENTATION": "CC(C)C[C@@H](NC(=O)c1c[nH]c2ncc(C3CC3)nc12)C(=O)N1CC2(CNC2)C1", "VALUE OBSERVED": "> 100 µM"}
{"SMILES REPRESENTATION": "O=C(N[C@@H](C(=O)N1CCOCC1)C1CC1)c1c[nH]c2ncc(C3CC3)nc12", "VALUE OBSERVED": "> 100 µM"}
{"SMILES REPRESENTATION": "O=C(N[C@@H](C(=O)NCC(=O)N1CCCC1)C1CC1)c1c[nH]c2ncc(C3CC3)nc12", "VALUE OBSERVED": "> 100 µM"}
{"SMILES REPRESENTATION": "O=C(N[C@@H](C(=O)NCC(=O)N1CCS(=O)(=O)CC1)C1CC1)c1c[nH]c2ncc(C3CC3)nc12", "VALUE OBSERVED": "> 100 µM"}

Give the reported IC50 for this compound. "COc1ccc(NC(=O)[C@H](NC(=O)c2c[nH]c3ncc(C4CC4)nc23)C2CC2)cc1"
> 100 µM

Supply IC50 value. Item: "CC(C)C[C@@H](NC(=O)c1c[nH]c2ncc(C3CC3)nc12)C(=O)NCC(=O)NCc1ccccc1"
> 100 µM

For the compound "O=C(N[C@@H](C(=O)NCCC(=O)N1CCCCC1)C1CC1)c1c[nH]c2ncc(C3CC3)nc12" , give its reported IC50.
> 100 µM

Supply IC50 value. Item: "CC(C)c1cnc2[nH]cc(C(=O)NCCCN3CCOCC3)c2n1"
> 100 µM
